Method: Formation of 1,5-cz-[Ln(Lig)] from Lig and Ln^III ions (metal dependent click-zip), MOPS/NaOH buffer pH 7.0, analytical HPLC (Charts 1, 2)
Setup Conditions: Ho^III; after 1 hour at 80° C.; MOPS/NaOH buffer pH 7.0
Measured Metric: conversion to 1,5-cz-[Ln(Lig)], Ho^III (%)
The reply should contain only the number, in %.

# input compound: CC(C)(N)C#Cc1cccc(CN2CCN(CC(=O)O)CCN(Cc3cc(-c4ccccc4)cc(CN=[N+]=[N-])n3)CCN(CC(=O)O)CC2)n1 [TD1054] ; wanted: its conversion to 1,5-cz-[Ln(Lig)], Ho^III 16

Entry C#CCNC(=O)CN1CCN(CC(=O)O)CCN(Cc2cc(-c3ccccc3)cc(CN=[N+]=[N-])n2)CCN(CC(=O)O)CC1 [TD425] : reported conversion to 1,5-cz-[Ln(Lig)], Ho^III = ? 0

Report conversion to 1,5-cz-[Ln(Lig)], Ho^III for C#Cc1cccc(CN2CCN(CC(=O)O)CCN(Cc3cc(C(F)(F)F)cc(CN=[N+]=[N-])n3)CCN(CC(=O)O)CC2)n1 [TD1063] please. 22

* * *

Method: Dissociation of chelates in aq. 0.1M HCl at 80° C. (acid decomplexation kinetic inertness) (Chart 19)
Assay type: physicochemical
Setup Conditions: 1 hour
Measured Metric: fraction of intact chelate (%)
Enter your answer as a number in %; do not include the unit.

Sample O=C1C[N@@]2CC[N@]3CC[N@@](CC[N@](CC2)Cc2cccc(n2)-c2cnnn2Cc2cc(-c4ccccc4)cc(n2)C3)CC(=O)[O][Eu][O]1 — what was its fraction of intact chelate? 100

Which fraction of intact chelate is listed for O=C1C[N@@]2CC[N@]3CC[N@@](CC[N@](CC2)Cc2cccc(n2)-c2cnnn2Cc2cc(-c4ccccc4)cc(n2)C3)CC(=O)[O][Cd][O]1 ? 100

Name the reported fraction of intact chelate value associated with the molecule O=C1C[N@@]2CC[N@]3CC[N@@](CC[N@](CC2)Cc2cccc(n2)-c2cnnn2Cc2cc(-c4ccccc4)cc(n2)C3)CC(=O)[O][Ce][O]1 0

Name the recorded fraction of intact chelate for O=C1C[N@@]2CC[N@]3CC[N@@](CC[N@](CC2)Cc2cccc(n2)-c2cnnn2Cc2cc(-c4ccccc4)cc(n2)C3)CC(=O)[O][Gd][O]1 . 100

Could you tell me which fraction of intact chelate is on file for O=C1C[N@@]2CC[N@]3CC[N@@](CC[N@](CC2)Cc2cccc(n2)-c2cnnn2Cc2cc(-c4ccccc4)cc(n2)C3)CC(=O)[O][La][O]1 ? 0

Record request: fraction of intact chelate value, item O=C1C[N@@]2CC[N@]3CC[N@@](CC[N@](CC2)Cc2cccc(n2)-c2cn(nn2)Cc2cc(-c4ccccc4)cc(n2)C3)CC(=O)[O][Cd][O]1 56

* * *

Method: Dissociation of chelates in aq. 1.0M HCl at 80° C. (acid decomplexation kinetic inertness) (Chart 18)
Assay type: physicochemical
Setup Conditions: 1 week
Measured Metric: fraction of intact chelate

Which value of fraction of intact chelate has been reported for O=C1C[N@@]2CC[N@]3CC[N@@](CC[N@](CC2)Cc2cccc(n2)-c2cnnn2Cc2cc(-c4ccccc4)cc(n2)C3)CC(=O)[O][Yb][O]1 [TD602] in the records? 100%

State the recorded fraction of intact chelate for this entry: O=C([O-])CN1CCN2CCN(CC(=O)[O-])CCN(CC1)Cc1cccc(n1)-c1cnnn1Cc1cc(-c3ccccc3)cc(n1)C2.[Pb+2] [TD876] 0%

Record request: fraction of intact chelate value, item O=C1C[N@@]2CC[N@]3CC[N@@](CC[N@](CC2)Cc2cccc(n2)-c2cn(nn2)Cc2cc(-c4ccccc4)cc(n2)C3)CC(=O)[O][Gd][O]1 [TD875] 0%

Please report the recorded fraction of intact chelate for O=C1C[N@@]2CC[N@]3CC[N@@](CC[N@](CC2)Cc2cccc(n2)-c2cnnn2Cc2cc(-c4ccccc4)cc(n2)C3)CC(=O)[O][Y][O]1 [TD649] . 98%

Could you share which fraction of intact chelate value was measured for O=P1(c2ccccc2)C[N@@]2CC[N@]3CC[N@@](CC[N@](CC2)Cc2cccc(n2)-c2cnnn2Cc2cccc(n2)C3)CP(=O)(c2ccccc2)[O][Gd][O]1 (stereo partly shown) [TD925] ? 21%

Entry under review: O=C1C[N@@]2CC[N@]3CC[N@@](CC[N@](CC2)Cc2cccc(n2)-c2cnnn2Cc2cc(-c4ccccc4)cc(n2)C3)CC(=O)[O][Nd][O]1 [TD868] . Reported fraction of intact chelate? 0%

Need fraction of intact chelate, item O=C1C[N@@]2CC[N@]3CC[N@@](CC[N@](CC2)Cc2cccc(n2)-c2cnnn2Cc2cc(-c4ccccc4)cc(n2)C3)CC(=O)[O][La][O]1 [TD651] 0%
